Reported growth values are given for each entry in this list.
Tested on: NCI/ADR-RES ovarian
run_description: NCI-60 one-dose screen, 48 h (100 = growth as untreated, 0 = no growth, -100 = all killed)
measurement_parameters: 10 µM unless noted
The panel holds about 83,000 compounds, 20% with a hit somewhere; the sample as a whole holds those more often.
endpoint_name: growth (%)

compound	tested_system	units_text	reported_result
N#Cc1c(N)nc2c(c1N)C(c1ccc(F)cc1)c1ccc(N)cc1O2 (stereo not given)	NCI/ADR-RES ovarian	%	107
O=C1c2cc(I)ccc2Oc2cc([N+](=O)[O-])ccc2N1c1ccc(Cl)cc1F	NCI/ADR-RES ovarian	%	89.7
O=S(=O)(c1ccccc1)n1cc2c(c1-c1ccccc1)CCc1sc(Nc3ccccc3)nc1-2	NCI/ADR-RES ovarian	%	76.8
O=Cc1c(OCc2cnnn2CC(=O)Nc2ccc(Br)cc2)ccc2ccccc12	NCI/ADR-RES ovarian	%	90.5
COc1ccccc1N1C(=N)S/C(=C\c2ccc(OCc3ccccc3F)cc2)C1=O	NCI/ADR-RES ovarian	%	71.3

----------
Tested on: SF-268 CNS
run_description: NCI-60 one-dose screen, 48 h
measurement_parameters: 10 µM unless noted
This is part of a sample that, as a whole, favours compounds with a hit. Of some 83,000 tested, about 20% had one in any assay. Active and inactive are the calls of the source. How the source made its calls: active means growth percent below 10; inactive means the rest.
Classes used: active, inactive

compound	group
CC(C)(C)c1ccc(C2CC(=O)C3=C(C2)Nc2ccccc2N(C(=O)c2ccccc2Cl)C3c2ccc(F)cc2)cc1 (centres undefined)	inactive
COc1ccccc1C1=C(Br)C(=O)c2nc(C)ccc2C1=O	inactive
CC1=C(C(=O)OCC2CCN(C(=O)OC(C)(C)C)CC2)[C@H](c2cccc(Br)c2)C2=C(CC(C)(C)CC2=O)N1	inactive
CCCCN1CCN(c2ccc3nc(-c4ccc5nc(-c6ccc(OCC)cc6)[nH]c5c4)[nH]c3c2)CC1	inactive
COc1cccc2c(=O)c3c(sc12)c(NCCCNCCO)nc1ccccc13	inactive
COc1ccc(-c2nsc3c2NC(=O)CC3c2ccsc2)cc1 (centres undefined)	inactive
O=c1c(-c2nc3ccccc3[nH]2)cc2ccccc2n1Cc1cn(Cc2ccccc2Cl)nn1	inactive
O=C(Nc1ccc(F)cc1F)c1cc(I)ccc1O	inactive
O=C(c1nc2ccccc2[nH]1)C1C(c2cccc([N+](=O)[O-])c2)C2CC3CCCCC3N2[C@@]12C(=O)Nc1cc(Cl)ccc12 (some centres undefined)	inactive
O=c1c(-c2nc3ccccc3[nH]2)cc2ccccc2n1Cc1cn(Cc2ccc(F)cc2)nn1	inactive
O=c1c2cc(F)ccc2sc2c(Nc3ccncc3)nc3ccccc3c12	active
O=C(Nc1ccc(N2CCNCC2)cc1)c1[nH]ncc1Nc1cc(C2CC2)ncn1	inactive
O=C(Nc1ccc(-c2nc3cc4ccccc4cc3[nH]2)cc1)c1cccc(Br)c1	inactive
O=C(CN1C=NC2C(N3CCOCC3)=NC=NC21)c1cccc2ccccc12 (centres undefined)	inactive
O=C(NCCCN1CCC(N2CCCCC2)CC1)C1=Cc2cc(Br)ccc2OC1	inactive
COc1ccccc1N1C(=N)S/C(=C\c2ccc(OCc3ccccc3F)cc2)C1=O	inactive
CCOC(=O)c1cc2c(n1Cc1cc(OC)cc(OC)c1)-c1oncc1CCC2	inactive
COC(=O)c1cc2c(n1Cc1ccccc1)-c1oncc1CCC2	inactive
COc1cc2nc(NC3CCCC3)nc(NC3CCN(C(C)C)CC3)c2cc1OC	inactive
